target: human V1a receptor (Homo sapiens, UniProt P37288); construct: expressed in transfected cells; host or cells: CHO K1 (ATCC), also stably transfected with a modified aequorin; assay: Cellular in vitro assay for vasopressin receptor activity, V1a cell line (aequorin luminescence); type: cell-based; conditions: ratio of the IC50 on human V2 to the IC50 on human V1a
Sequence (P37288 whole entry): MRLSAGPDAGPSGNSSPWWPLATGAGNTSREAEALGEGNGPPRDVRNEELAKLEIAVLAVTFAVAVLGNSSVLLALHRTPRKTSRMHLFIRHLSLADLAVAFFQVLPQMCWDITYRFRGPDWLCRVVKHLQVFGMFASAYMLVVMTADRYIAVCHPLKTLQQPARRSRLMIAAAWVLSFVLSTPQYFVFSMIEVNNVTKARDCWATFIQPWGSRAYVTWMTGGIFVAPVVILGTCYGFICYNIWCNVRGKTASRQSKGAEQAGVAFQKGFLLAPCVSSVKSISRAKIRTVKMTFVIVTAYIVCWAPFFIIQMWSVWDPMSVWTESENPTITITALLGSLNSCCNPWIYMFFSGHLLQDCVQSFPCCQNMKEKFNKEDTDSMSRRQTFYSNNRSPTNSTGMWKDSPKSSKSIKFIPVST
The entries below come with measured ratio IC50 hV2/hV1a values attached.

{"columns": ["compound", "ratio IC50 hV2/hV1a"],
 "data": [
  ["CC(F)(F)c1nc(Cn2nc(-c3ccc(Cl)cc3)n(C[C@H](O)C(F)(F)F)c2=O)nn1-c1c(Cl)cccc1Cl [Example 68]", 1.3],
  ["O=c1n(Cc2nc(C(F)(F)F)n(-c3cccc(F)c3)n2)nc(-c2ccc(Cl)cc2)n1C[C@H](O)C(F)(F)F [Example 78]", 0.1],
  ["CC(F)(F)c1nc(Cn2nc(-c3ccc(Cl)cc3)n(C[C@H](O)C(F)(F)F)c2=O)nn1-c1ccccc1[N+](=O)[O-] [Example 65]", 3.7],
  ["CC(F)c1nc(Cn2nc(-c3ccc(Cl)cc3)n(C[C@H](O)C(F)(F)F)c2=O)nn1-c1ccccc1OC(F)(F)F (single isomer, unassigned) [Example 27]", 5.6],
  ["Cc1ccccc1-n1nc(Cn2nc(-c3ccc(Cl)cc3)n(C[C@H](O)C(F)(F)F)c2=O)nc1C(C)F (single isomer, unassigned) [Example 36]", 1.5],
  ["CC(F)c1nc(Cn2nc(-c3ccc(Cl)cc3)n(C[C@H](O)C(F)(F)F)c2=O)nn1-c1ncccc1C(F)(F)F (single isomer, unassigned) [Example 11]", 5.5]
]}
